Assay: method code SF-AS, from DOI: 10.1021/bi00362a019, PMID: 3017413
measuredEndpoint: logP

{"columns": ["smi", "measuredEndpoint", "testValue"],
 "data": [
  ["N=C(N)NN=Cc1ccc(-c2ccccc2)cc1", "logP", 1.49],
  ["N=C(N)NN=Cc1ccc(Cl)cc1", "logP", 0.96],
  ["CC(C)(C)Oc1ccc(/C=N/N=C(N)N)cc1", "logP", 1.38],
  ["NC(N)=N/N=C/c1ccc(Oc2ccccc2)cc1", "logP", 1.87],
  ["NC(N)=N/N=C/c1ccccc1[N+](=O)[O-]", "logP", 0.53],
  ["CCN(CC)c1ccc(C=NN=C(N)N)cc1", "logP", 0.56]
]}

Each of the following entries comes with a recorded value; kindly state logP for each.
1. NC(N)=N/N=C/c1cccc([N+](=O)[O-])c1
2. NC(N)=N/N=C/c1ccc(Br)cc1
3. NC(N)=N/N=C/c1ccc([N+](=O)[O-])cc1
4. NC(N)=N/N=C/c1ccc(Cl)c([N+](=O)[O-])c1
5. CN(C)c1ccc(/C=N/N=C(N)N)cc1
6. CCOc1ccc(/C=N/N=C(N)N)cc1
7. COc1ccc(/C=N/N=C(N)N)cc1

Found:
0.01
1.3
0.87
0.53
0.28
0.24
0.29
